Hello, the source for this data is patent US20240002497A1, in case you need it.

molecular target: T1, huNav1.7α + β1-β2-β3 (human, UniProt Q15858 1-1988; A5A6L6 19-218; O60939 30-215; Q2KI11 23-215); test: binding FACS, CHO FlpIn
T1 construct: also called huNav1.7-beta1-beta2-beta3; huNav1.7-β1-β2-β3
parameter measured: EC50 (nM)

Observe how each entry below is paired with its result.
binder | EC50 [nM]
F010302340 (VHH) VHH: EVQLVESGGGVVQPGGSLRLSCAASHRAFIRDLFTGWYRRAPGKQRELVARIYESGNTNYADSAKGRFTISRDNAKKTVYLQMNSLRPEDTALYYCLFSGTISTGREYRSGDYWGQGTLVTVSS | 4.6
F010301934 (VHH, also called F0103464B09(L11V, M77T, K83R, V89L)) VHH: EVQLVESGGGVVQPGGSLRLSCATTSRAFIRDVFTGWYRRVPGKERELVARIYNGGNTNYADFAKGRFSISRDNAKKTVTLRMSNLRPEDTGLYYCLFSGTINTGREYRSGDYWGQGTLVTVSS | 4.3
F010302344 (VHH) VHH: EVQLVESGGGVVQPGGSLRLSCAASHRQFIRDVFTGWYRQAPGKQRELVARIYNEGNTQYADSAKGRFTISRDNAKKTVYLQMNSLRPEDTALYYCLFSGTISTGREYRSGDYWGQGTLVTVSS | 4.3
F010302361 (VHH) VHH: EVQLVESGGGVVQPGGSLRLSCAASHRQFIRDVFTGWYRQAPGKQRELVARIYEGGNTQYADSVKGRFTISRDNAKKTVYLQMNSLRPEDTALYYCLFSGTISTGREYRSGDYWGQGTLVTVSS | 4.8
F0103464B09 (parental)-FLAG-HIS6 (VHH, also called F010346B09) VHH: EVQLVESGGGLVQPGGSLRLSCATTSRAFIRDVFTGWYRRVPGKERELVARIYNGGNTNYADFAKGRFSISRDNAKKMVTLRMSNLKPEDTGVYYCLFSGTINTGREYRSGDYWGQGTLVTVSS | 5.2
F010302351 (VHH) VHH: EVQLVESGGGVVQPGGSLRLSCAASSRQFIRDVFTGWYRRAPGKQRELVARIYESGNTQYADSVKGRFTISRDNAKKTVYLQMNSLRPEDTALYYCLFSGTISTGREYRSGDYWGQGTLVTVSS | 5.6

a: F010302346 (VHH) VHH: EVQLVESGGGVVQPGGSLRLSCAASHRAFIRDVFTGWYRQAPGKQRELVARIYESGNTQYADSAKGRFTISRDNAKKTVYLQMNSLRPEDTALYYCLFSGTISTGREYRSGDYWGQGTLVTVSS
b: F010302360 (VHH) VHH: EVQLVESGGGVVQPGGSLRLSCAASHRQFIRDVFTGWYRQAPGKQRELVARIYNEGNTQYADSVKGRFTISRDNAKKTVYLQMNSLRPEDTALYYCLFSGTISTGREYRSGDYWGQGTLVTVSS
## Input Kindly identify the item with the lower EC50 figure among these two: a and b Choose, then provide that item's label.
## Output b
